Entry source: PubChem BioAssay

- Test name: basal HepG2 mitochondrial membrane potential changes, profiling panel, cell-based, JC-1 fluorescence, 24 h, 100 nL compound (AID 1167); also: test concentration not given here
- Test settings: higher = more signal
Catalogue of z-score readings, one per entry.
Measured parameter: z-score

[[record]]
compound = "C[C@H](ON=C1[C@H]2CCn3c(=O)n(-c4ccccc4)c(=O)n3[C@H]2[C@H](O)[C@@H]2O[C@H]12)c1cn([C@H](CO)Cc2ccccc2)nn1"
measured_parameter = "z-score"
reported_measurement = -0.633

[[record]]
compound = "COC(=O)CC=C[C@@H](C)[C@@H](C=NO[C@@H](C)c1cn([C@H](CO)Cc2ccccc2)nn1)NS(=O)(=O)c1ccc(C)cc1"
measured_parameter = "z-score"
reported_measurement = -1.24

[[record]]
compound = "CCOC(=O)C1=NO[C@@]2(C=C(Br)C3(OCCCO3)[C@H]3O[C@H]32)C1"
measured_parameter = "z-score"
reported_measurement = 0.448

[[record]]
compound = "C#CCCCON=C1C[C@@H](O)[C@@H](O)[C@@H]2[C@@H]3C(=O)N(CC)C(=O)[C@@H]3CC[C@@H]12"
measured_parameter = "z-score"
reported_measurement = -0.836

[[record]]
compound = "CCOC(=O)[C@H](CC(C)C)NC(=O)CCC1CC(OC(=O)NCc2cccc3ccccc23)CC2(CCCC(COC(=O)NCc3ccncc3)O2)O1 (stereo not given in full)"
measured_parameter = "z-score"
reported_measurement = 0.991

